This collection of values is drawn from patent US6339096B1.

# 2,3-epoxysqualene concentration in the liver (rat) per record follows
- tgt: 2,3-epoxysqualene-lanosterol-cyclase (Rattus norvegicus, UniProt P48450)
- Construct: The quantity of 2,3-epoxysqualene formed therefore serves as a direct measurement of the potency on the animal as a whole; from tissue; host or cells: living rat; 2,3-epoxysqualene measured in the liver
- Sequence (P48450 1-733): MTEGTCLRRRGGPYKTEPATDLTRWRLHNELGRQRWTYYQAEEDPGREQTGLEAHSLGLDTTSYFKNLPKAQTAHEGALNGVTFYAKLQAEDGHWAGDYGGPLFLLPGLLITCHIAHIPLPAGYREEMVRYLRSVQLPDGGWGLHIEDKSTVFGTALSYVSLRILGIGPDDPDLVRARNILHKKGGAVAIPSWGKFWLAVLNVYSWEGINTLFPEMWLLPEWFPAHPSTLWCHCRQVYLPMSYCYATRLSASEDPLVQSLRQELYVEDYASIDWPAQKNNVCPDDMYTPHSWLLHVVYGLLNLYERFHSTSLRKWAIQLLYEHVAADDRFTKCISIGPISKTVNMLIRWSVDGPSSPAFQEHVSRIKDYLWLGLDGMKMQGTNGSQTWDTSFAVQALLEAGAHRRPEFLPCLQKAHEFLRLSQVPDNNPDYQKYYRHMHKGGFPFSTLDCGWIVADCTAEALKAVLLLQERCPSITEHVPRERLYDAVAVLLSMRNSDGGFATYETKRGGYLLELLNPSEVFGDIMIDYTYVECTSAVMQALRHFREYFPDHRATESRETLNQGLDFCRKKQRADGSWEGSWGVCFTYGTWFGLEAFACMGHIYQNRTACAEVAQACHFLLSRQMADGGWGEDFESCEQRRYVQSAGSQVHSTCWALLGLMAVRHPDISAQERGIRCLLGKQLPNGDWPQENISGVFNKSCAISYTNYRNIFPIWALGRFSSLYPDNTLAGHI
- method_notes: In-vivo activity in the rat after oral administration: 2,3-epoxysqualene level in the liver
- assay_context: c=1.0 mg/kg, t=3 h
Return type: number; implicit unit µg/g.

Observe how each entry below is paired with its result.
| molecule | tgt | units_label | measured_number |
| --- | --- | --- | --- |
| CN(C)Cc1ccc(CC2CCN(C(=O)OCc3ccccc3)CC2)cc1.Cl [(I)] | 2,3-epoxysqualene-lanosterol-cyclase (Rattus norvegicus, UniProt P48450) | µg/g | 26.1 |
| CN(C)Cc1ccc(SC2CCN(C(=S)SCc3ccccc3)CC2)cc1.Cl [(A)] | 2,3-epoxysqualene-lanosterol-cyclase (Rattus norvegicus, UniProt P48450) | µg/g | 9.3 |
| CN(C)Cc1ccc(C(=O)C2CCN(C(=S)SCc3ccccc3)CC2)cc1.Cl [(B)] | 2,3-epoxysqualene-lanosterol-cyclase (Rattus norvegicus, UniProt P48450) | µg/g | 39.2 |
| CN(C)Cc1ccc(CC2CCN(C(=S)Oc3ccc(Cl)cc3)CC2)cc1.Cl [(G)] | 2,3-epoxysqualene-lanosterol-cyclase (Rattus norvegicus, UniProt P48450) | µg/g | 87.4 |
| CN(C)Cc1ccc(SC2CCN(C(=O)OCc3ccccc3)CC2)cc1.Cl [(C)] | 2,3-epoxysqualene-lanosterol-cyclase (Rattus norvegicus, UniProt P48450) | µg/g | 3.8 |
| CN(C)Cc1ccc(CC2CCN(C(=O)Oc3ccc(Cl)cc3)CC2)cc1.Cl [(H)] | 2,3-epoxysqualene-lanosterol-cyclase (Rattus norvegicus, UniProt P48450) | µg/g | 56.3 |

The value of 2,3-epoxysqualene concentration in the liver (rat) measured for the molecule Cc1ccc(OC(=O)N2CCC(Cc3ccc(CN(C)C)cc3)CC2)cc1.Cl [(K)] turned out to be 24.0

====

- tgt: 2,3-epoxysqualene-lanosterol-cyclase (Rattus norvegicus)
- Construct: The quantity of 2,3-epoxysqualene formed therefore serves as a direct measurement of the potency on the animal as a whole; from tissue; host or cells: living rat; 2,3-epoxysqualene measured in the liver
- method_notes: In-vivo activity in the rat after oral administration: 2,3-epoxysqualene level in the liver
- assay_context: c=0.1 mg/kg, t=3 h
readout_name: 2,3-epoxysqualene concentration in the liver (rat) (µg/g)
Return type: number; implicit unit µg/g.

Observe how each entry below is paired with its result.
| compound | tgt | measured_number |
| --- | --- | --- |
| CN(C)Cc1ccc(CC2CCN(C(=S)SCc3ccccc3)CC2)cc1.Cl [(E)] | 2,3-epoxysqualene-lanosterol-cyclase (Rattus norvegicus) | 5.6 |
| CN(C)Cc1ccc(CC2CCN(C(=S)Oc3ccc(Cl)cc3)CC2)cc1.Cl [(G)] | 2,3-epoxysqualene-lanosterol-cyclase (Rattus norvegicus) | 10.3 |
| CN(C)Cc1ccc(SC2CCN(C(=O)OCc3ccccc3)CC2)cc1.Cl [(C)] | 2,3-epoxysqualene-lanosterol-cyclase (Rattus norvegicus) | 0.5 |
| Cc1ccc(OC(=O)N2CCC(Cc3ccc(CN(C)C)cc3)CC2)cc1.Cl [(K)] | 2,3-epoxysqualene-lanosterol-cyclase (Rattus norvegicus) | 0.4 |
| CN(C)Cc1ccc(SC2CCN(C(=O)Oc3ccc(Cl)cc3)CC2)cc1.Cl [(D)] | 2,3-epoxysqualene-lanosterol-cyclase (Rattus norvegicus) | 1.4 |
| CN(C)Cc1ccc(CC2CCN(C(=O)Oc3ccc(Cl)cc3)CC2)cc1.Cl [(H)] | 2,3-epoxysqualene-lanosterol-cyclase (Rattus norvegicus) | 1.0 |

The value of 2,3-epoxysqualene concentration in the liver (rat) measured for the compound CN(C)Cc1ccc(CC2CCN(C(=O)OCc3ccccc3)CC2)cc1.Cl [(I)] turned out to be 1.0
